study.system: Human complement C1s enzyme (Homo sapiens (Human), UniProt P09871)
Sequence (P09871 438-688 limits assumed): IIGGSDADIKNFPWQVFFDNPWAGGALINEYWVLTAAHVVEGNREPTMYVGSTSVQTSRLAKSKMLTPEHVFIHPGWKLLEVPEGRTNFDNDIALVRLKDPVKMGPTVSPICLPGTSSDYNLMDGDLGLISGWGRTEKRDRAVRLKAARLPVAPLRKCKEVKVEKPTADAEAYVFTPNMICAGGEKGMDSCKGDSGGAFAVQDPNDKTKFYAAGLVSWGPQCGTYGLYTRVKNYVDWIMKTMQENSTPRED
Sequence (P09871 16-437 partner limits assumed): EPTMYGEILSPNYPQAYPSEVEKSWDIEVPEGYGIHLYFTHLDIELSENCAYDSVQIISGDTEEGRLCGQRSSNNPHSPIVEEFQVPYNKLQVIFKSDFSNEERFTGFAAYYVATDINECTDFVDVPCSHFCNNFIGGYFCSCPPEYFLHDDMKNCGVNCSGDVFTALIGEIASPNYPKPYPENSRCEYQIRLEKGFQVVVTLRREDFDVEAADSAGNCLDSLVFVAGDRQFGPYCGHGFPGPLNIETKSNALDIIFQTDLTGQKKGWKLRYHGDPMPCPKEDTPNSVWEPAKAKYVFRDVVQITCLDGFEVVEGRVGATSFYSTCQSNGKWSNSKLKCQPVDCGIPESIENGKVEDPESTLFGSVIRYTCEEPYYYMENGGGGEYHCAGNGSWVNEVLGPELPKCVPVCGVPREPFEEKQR
experiment: Human C1s enzyme assay
Assay type: biochemical
settings: Human complement C1s enzyme 1.16 nM, substrate Z-L-Lys-SBzl 100 μM, assay of Example 3; read-out: IC50 (Stars)
pIC50: −log10 of the molar value.
metric.name: pIC50

**Query** // fetch pIC50 given entry N=C(N)c1csc([C@@H](CO)NC(=O)[C@@H]2C[C@@H](OC(F)F)CN2C(=O)CNC(=O)c2ccc3c(c2)C(F)(F)c2ccccc2-3)c1
**Result** > 7.00

**Query** Please supply the value of reported pIC50 for the item C[C@@H](NC(=O)[C@@H]1C[C@@H](Oc2ccccc2)CN1C(=O)CNC(=O)c1ccc2oc3ccccc3c2c1)c1cc(C(=N)N)cs1
**Result** > 7.00

**Query** Report measured pIC50; entry is COC[C@@]1(F)C[C@@H](C(=O)N[C@H](CO)c2cc(C(=N)N)cs2)N(C(=O)CNC(=O)c2ccc3c(c2)C(F)(F)c2ccccc2-3)C1
**Result** > 7.00

Further cases:
**Query** Note down pIC50 recorded for C[C@@H](NC(=O)[C@@H]1C[C@](F)(CF)CN1C(=O)CNC(=O)c1cccc(-c2ccc(F)cc2)c1)c1cc(C(=N)N)cs1
**Result** > 7.00

**Query** Report measured pIC50; entry is Nc1csc(CNC(=O)[C@@H]2CC3(CN2C(=O)CNC(=O)c2ccc(Oc4ccc(F)cc4)cc2)OCCO3)c1
**Result** < 6.00

**Query** Specify pIC50 for Cc1ccc(-c2cccc(C(=O)NCC(=O)N3C[C@H](S(C)(=O)=O)C[C@H]3C(=O)N[C@H](C)c3cc(C(=N)N)cs3)c2)cc1 and stop.
**Result** > 7.00

**Query** Give the measured pIC50 for C[C@@H](NC(=O)[C@@H]1CC2(CN1C(=O)CNC(=O)c1ncc(-c3ccc(F)cc3F)cc1F)OCCO2)c1cc(C(=N)N)cs1
**Result** > 7.00

**Query** Please give measured pIC50 of the following entry: CCCCCCOC(=O)/N=C(/N)c1csc([C@@H](C)NC(=O)[C@@H]2C[C@@H](OC(F)F)CN2C(=O)CNC(=O)c2ccc3c(c2)-c2ccccc2C3(F)F)c1
**Result** > 7.00

**Query** Retrieve pIC50 measured for C[C@@H](NC(=O)[C@@H]1CC2(CN1C(=O)CNC(=O)c1ccc3c(c1)-c1ccccc1C3OC(F)F)OCCO2)c1cc(C(=N)N)cs1 (stereo partly drawn) and print it.
**Result** > 7.00

* * *

Here the recorded IC50 is given for each entry.
study.system: Human complement C1s enzyme (Homo sapiens (Human), UniProt P09871)
experiment: Human C1s enzyme assay
Format: biochemical
settings: Human complement C1s enzyme 1.16 nM, substrate Z-L-Lys-SBzl 100 μM, assay of Example 3; read-out: IC50 (Stars)

Use these answered entries as a reference point.
**Query** Give the reported IC50 for this compound. O=C(NCC(=O)N1CC2(C[C@H]1C(=O)NCc1cc(N3CCCC3)cs1)OCCO2)c1ccc(Oc2ccc(F)cc2)cc1 [Compound 289]
**Result** 100 to 1000 nM

**Query** Identify the reported IC50 for the following entry. N=C(N)c1csc(CNC(=O)[C@@H]2CC3(CN2C(=O)CNC(=O)c2ccc(-c4ccc(F)c(C(=O)O)c4)cc2)OCCO3)c1 [Compound 212]
**Result** < 100 nM

**Query** Write down IC50 measured for item N=C(N)c1csc(CNC(=O)[C@@H]2CC3(CN2C(=O)CNC(=O)c2ccc(-c4ccccc4)o2)OCCO3)c1 [Compound 297]
**Result** < 100 nM

**Query** Please give measured IC50 of the following entry: COc1cccc(F)c1-c1ccc(C(=O)NCC(=O)N2CC3(C[C@H]2C(=O)NCc2cc(C(=N)N)cs2)OCCO3)cc1 [Compound 241]
**Result** < 100 nM

**Query** Annotate the compound C[C@@H](NC(=O)[C@@H]1C[C@](F)(CF)CN1C(=O)CNC(=O)c1ccc2c(c1)S(=O)(=O)c1ccccc1-2)c1cc(C(=N)N)cs1 [Compound 375] with its measured IC50.
**Result** < 100 nM

**Query** Specify IC50 for Cc1ccc(-c2ccc3c(c2)CN(CC(=O)N2CC4(C[C@H]2C(=O)NCc2cc(C(=N)N)cs2)OCCO4)C3=O)c(C)c1 [Compound 240] and stop.
**Result** < 100 nM

Here is the next item to consider.
**Query** Look up and report measured IC50 for this entry: CCCCCCOC(=O)/N=C(/N)c1csc([C@@H](C)NC(=O)[C@@H]2C[C@](F)(COC)CN2C(=O)CNC(=O)c2ccc3c(c2)-c2ccccc2C3(F)F)c1 [Compound 249]
**Result** < 100 nM

* * *

Reported IC50 values follow for various compounds
study.system: Human complement C1s enzyme (Homo sapiens (Human))
experiment: Human C1s enzyme assay
Assay type: biochemical
settings: Human complement C1s enzyme 1.16 nM, substrate Z-L-Lys-SBzl 100 μM, assay of Example 3; read-out: IC50 (Stars)

These recorded examples may help you get a feel for the data.
**Query** For the compound N=C(N)c1csc([C@H](NC(=O)[C@@H]2CC3(CN2C(=O)CNC(=O)c2ccc4c(c2)-c2ccccc2C4(F)F)OCCO3)C(F)(F)F)c1 (single isomer, unassigned) , give its measured IC50 value.
**Result** < 0.1 µM

**Query** Give IC50 for CCCCCCOC(=O)/N=C(/N)c1csc([C@@H](C)NC(=O)[C@@H]2C[C@](F)(CF)CN2C(=O)CNC(=O)c2ccc3c(c2)-c2ccccc2C3(F)F)c1
**Result** < 0.1 µM

Here's the next entry for you.
**Query** Tell me its IC50 given Cc1c2ccccc2cc2cc(C(=O)NCC(=O)N3CC4(C[C@H]3C(=O)N[C@H](C)c3cc(C(=N)N)cs3)OCCO4)ccc12 as the entry.
**Result** < 0.1 µM

* * *

study.system: Human complement C1s enzyme (Homo sapiens (Human), UniProt P09871)
experiment: Human C1s enzyme assay
Assay type: biochemical
settings: Human complement C1s enzyme 1.16 nM, substrate Z-L-Lys-SBzl 100 μM, assay of Example 3; read-out: IC50 (Stars)
pIC50: −log10 of the molar value.
Some compounds, each annotated with its measured pIC50.

Please review the following examples before continuing.
**Query** // fetch pIC50 given entry N=C(N)c1csc(CNC(=O)[C@@H]2CC3(CN2C(=O)CNC(=O)c2ccc(-c4ccc(C(=O)O)cc4F)cc2)OCCO3)c1
**Result** > 7.00

**Query** Look up and state reported pIC50 for COC(=O)/N=C(/N)c1csc([C@@H](C)NC(=O)[C@@H]2C[C@@H](OC(F)F)CN2C(=O)CNC(=O)c2ccc3c(c2)-c2ccccc2C3(F)F)c1
**Result** > 7.00

**Query** In one line, give reported pIC50 of the entry NC(=O)CCNc1csc(CNC(=O)[C@@H]2CC3(CN2C(=O)CNC(=O)c2ccc(Oc4ccc(F)cc4)cc2)OCCO3)c1 .
**Result** < 6.00

**Query** Entry C[C@@H](NC(=O)[C@@H]1C[C@]2(CN3CCOCC3)C[C@@H]2N1C(=O)CNC(=O)c1ccc2c(c1)-c1ccccc1C2(F)F)c1cc(C(=N)N)cs1 needs its pIC50 filled in; supply it.
**Result** > 7.00

**Query** Respond only with pIC50 recorded for C[C@@H](NC(=O)[C@@H]1C[C@@H](S(=O)(=O)C2CC2)CN1C(=O)CNC(=O)c1ccc2c(c1)-c1ccccc1C2(F)F)c1cc(C(=N)N)cs1
**Result** > 7.00

Now turn to the next compound.
**Query** Indicate the recorded pIC50 value for this compound: COC(=O)/N=C(/N)c1csc([C@@H](C)NC(=O)[C@@H]2C[C@](F)(CF)CN2C(=O)CNC(=O)c2ccc(Oc3ccc(F)cc3)cc2)c1
**Result** > 7.00

* * *

Below, each of the compounds is paired with its reported pIC50 value.
study.system: Human complement C1s enzyme (Homo sapiens (Human), UniProt P09871)
experiment: Human C1s enzyme assay
Assay type: biochemical
settings: Human complement C1s enzyme 1.16 nM, substrate Z-L-Lys-SBzl 100 μM, assay of Example 3; read-out: IC50 (Stars)
pIC50: −log10 of the molar value.

**Query** Retrieve pIC50 on Human complement C1s enzyme (Homo sapiens (Human), UniProt P09871); query C[C@@H](NC(=O)[C@@H]1C[C@@H](OC(F)F)CN1C(=O)CNC(=O)c1ccc2c(c1)C(C)(C)c1ccccc1-2)c1cc(C(=N)N)cs1
**Result** > 7.00

For the next question, use this compound.
**Query** Param request: pIC50 | system Human complement C1s enzyme (Homo sapiens (Human), UniProt P09871) | item CC(C)S(=O)(=O)[C@@H]1C[C@@H](C(=O)N[C@H](C)c2cc(C(=N)N)cs2)N(C(=O)CNC(=O)c2ccc3c(c2)-c2ccccc2C3(F)F)C1
**Result** > 7.00
